biological target: COX-2 (Rattus norvegicus); construct: from tissue; host or cells: rat gastric mucosa (LPS-treated rats, in vivo dosing); assay: COX-2 activity assay (PGE2 in gastric mucosa, EIA) in LPS-treated rats; assay type: in vivo; settings: gavage, LPS 2.5 mg/kg-activated
Sequence (P35355 18-604): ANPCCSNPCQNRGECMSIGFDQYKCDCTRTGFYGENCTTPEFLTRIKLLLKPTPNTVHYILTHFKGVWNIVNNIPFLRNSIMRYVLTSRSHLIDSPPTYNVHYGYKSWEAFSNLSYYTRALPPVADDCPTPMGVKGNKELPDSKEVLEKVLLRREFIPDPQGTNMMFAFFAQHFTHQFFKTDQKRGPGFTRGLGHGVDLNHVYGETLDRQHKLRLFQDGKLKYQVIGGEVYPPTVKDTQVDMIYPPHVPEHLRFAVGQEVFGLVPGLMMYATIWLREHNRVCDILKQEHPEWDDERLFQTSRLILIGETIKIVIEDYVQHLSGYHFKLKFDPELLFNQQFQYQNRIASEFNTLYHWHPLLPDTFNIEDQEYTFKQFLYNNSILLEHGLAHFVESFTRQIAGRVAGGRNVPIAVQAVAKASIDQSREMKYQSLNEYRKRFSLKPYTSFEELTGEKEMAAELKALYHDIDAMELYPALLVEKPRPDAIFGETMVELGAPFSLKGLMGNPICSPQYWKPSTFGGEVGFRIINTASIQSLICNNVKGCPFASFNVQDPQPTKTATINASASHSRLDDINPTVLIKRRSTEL

{"sample smiles": "COC1=C(OC)C(=O)C(CCCCCCCCCCOC(=O)Cc2c(C)n(C(=O)c3ccc(Cl)cc3)c3cc(OC)ccc23)=C(C)C1=O", "target under test": "COX-2 (Rattus norvegicus)", "inhibition against COX-2": "significantly enhanced"}
{"sample smiles": "COc1ccc2c(CC(=O)OCCCCCCCCCCc3c(C)c(O)c(OC)c(OC)c3O)c(C)n(C(=O)c3ccc(Cl)cc3)c2c1", "target under test": "COX-2 (Rattus norvegicus)", "inhibition against COX-2": "significantly enhanced"}

* * *

// number of survived mice lookup, one value per entry
system: mice (C57BL/6J); assay: Survival rate of mice irradiated by γ-rays; format: in vivo; settings: 30th day after 8.75 Gy γ-rays; 16 mice per group; intermediates each 3 mg/kg/day gavage
The reply should be a number in mice, with the unit left off.

Previously resolved entries follow.
{"molecule": "COc1ccc2c(CC(=O)OCCCCCCCCCCc3c(C)c(O)c(OC)c(OC)c3O)c(C)n(C(=O)c3ccc(Cl)cc3)c2c1", "target under test": "mice (C57BL/6J)", "quantitative result": 12}
{"molecule": "COC1=C(OC)C(=O)C(CCCCCCCCCCOC(=O)Cc2c(C)n(C(=O)c3ccc(Cl)cc3)c3cc(OC)ccc23)=C(C)C1=O", "target under test": "mice (C57BL/6J)", "quantitative result": 10}
{"molecule": "NCCCNCCSP(=O)(O)O [amifostine, reference compound]", "target under test": "mice (C57BL/6J)", "quantitative result": 10}

Consider the molecule COc1c(O)c(C)c(CCCCCCCCCCOC(=O)CC2=C(C)C(=Cc3ccc([S+](C)[O-])cc3)c3cc(F)ccc32)c(O)c1OC (stereo not shown) and give its measured number of survived mice.
11

Data origin: patent US10494341B2
